The measured values listed here are drawn from paper PMC5540273.

Reported inhibition at 1 µM by item:
Subject Of Test: JAK1(JH2domain-pseudokinase) (Homo sapiens)
Sequence (P23458 578-855 limits assumed): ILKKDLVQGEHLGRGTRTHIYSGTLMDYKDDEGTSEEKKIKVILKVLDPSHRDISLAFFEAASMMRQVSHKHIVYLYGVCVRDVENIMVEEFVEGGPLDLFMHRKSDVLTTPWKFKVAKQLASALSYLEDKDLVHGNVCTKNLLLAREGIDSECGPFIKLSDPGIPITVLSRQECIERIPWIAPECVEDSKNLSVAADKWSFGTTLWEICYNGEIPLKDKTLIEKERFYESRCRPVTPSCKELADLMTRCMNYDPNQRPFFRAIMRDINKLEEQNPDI
Run Description: KINOMEscan competition binding
Setup Conditions: read-out: %Inh JAK1(JH2domain-pseudokinase)
Number in %, nothing else.

Some solved entries appear below for comparison.
Compound | inhibition at 1 µM (%)
CS(=O)(=O)Cc1ccc(Nc2nccc(-c3c(-c4cccc(NC(=O)C5CCCCC5)c4)nn4ncccc34)n2)cc1 [UNC10225159A] | 0
O=c1cc(N2CCOCC2)nc2n(Cc3cccc(Cl)c3Cl)c(C3CC3)nn12 [UNC10225469A] | 3
COc1cccc(OC)c1C(=O)Nc1cccc(-c2nn3ccccc3c2-c2ccnc(Nc3cccc(F)c3)n2)c1 [UNC10225310A] | 4
Cn1cc(-c2cnc(N)c3c(-c4ccc5c(c4)CCN5C(=O)Cc4ccccc4)csc23)cn1 [UNC10225012A] | 0

Consider the additional compound presented here.
Asked: Could you share which inhibition at 1 µM value was measured for Cc1ccc(NC(=O)Nc2cccc(C(F)(F)F)c2)cc1 [UNC10225187A] ?
Given back: 12

###

Subject Of Test: UniProt P36894
Sequence (P36894 24-532): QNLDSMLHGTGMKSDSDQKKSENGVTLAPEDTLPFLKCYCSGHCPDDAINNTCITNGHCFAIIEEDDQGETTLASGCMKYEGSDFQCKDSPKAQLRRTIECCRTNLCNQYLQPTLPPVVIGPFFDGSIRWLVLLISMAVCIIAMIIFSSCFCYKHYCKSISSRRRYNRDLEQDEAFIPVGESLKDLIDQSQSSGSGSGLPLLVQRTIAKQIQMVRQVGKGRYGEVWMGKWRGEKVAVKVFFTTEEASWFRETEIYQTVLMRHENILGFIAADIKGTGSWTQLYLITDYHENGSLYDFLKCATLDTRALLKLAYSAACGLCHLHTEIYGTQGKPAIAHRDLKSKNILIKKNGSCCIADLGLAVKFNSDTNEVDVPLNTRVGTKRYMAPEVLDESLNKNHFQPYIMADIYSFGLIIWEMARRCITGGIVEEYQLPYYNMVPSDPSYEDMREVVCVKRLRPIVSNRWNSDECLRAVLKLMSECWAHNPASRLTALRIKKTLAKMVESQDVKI
Run Description: KINOMEscan competition binding
Setup Conditions: read-out: %Inh BMPR1A
If the reported inhibition at 1 µM equals or exceeds 20%, assign TRUE. If not, assign FALSE.

Example results:
Compound | Subject Of Test | Class Label
COc1cccc(OC)c1C(=O)Nc1cccc(-c2nn3ccccc3c2-c2ccnc(Nc3cccc(F)c3)n2)c1 [UNC10225310A] | UniProt P36894 | FALSE
CS(=O)(=O)Cc1ccc(Nc2nccc(-c3c(-c4cccc(NC(=O)C5CCCCC5)c4)nn4ncccc34)n2)cc1 [UNC10225159A] | UniProt P36894 | FALSE
O=c1cc(N2CCOCC2)nc2n(Cc3cccc(Cl)c3Cl)c(C3CC3)nn12 [UNC10225469A] | UniProt P36894 | FALSE

Asked: Has Cc1ccc(NC(=O)Nc2cccc(C(F)(F)F)c2)cc1 [UNC10225187A] a recorded inhibition at 1 µM greater than or equal to 20%?
Given back: TRUE

Asked: Now the same for Cn1cc(-c2cnc(N)c3c(-c4ccc5c(c4)CCN5C(=O)Cc4ccccc4)csc23)cn1 [UNC10225012A]
Given back: FALSE

###

Reported inhibition at 1 µM by item:
Subject Of Test: IRAK4 (Homo sapiens)
Sequence (Q9NWZ3 1-460): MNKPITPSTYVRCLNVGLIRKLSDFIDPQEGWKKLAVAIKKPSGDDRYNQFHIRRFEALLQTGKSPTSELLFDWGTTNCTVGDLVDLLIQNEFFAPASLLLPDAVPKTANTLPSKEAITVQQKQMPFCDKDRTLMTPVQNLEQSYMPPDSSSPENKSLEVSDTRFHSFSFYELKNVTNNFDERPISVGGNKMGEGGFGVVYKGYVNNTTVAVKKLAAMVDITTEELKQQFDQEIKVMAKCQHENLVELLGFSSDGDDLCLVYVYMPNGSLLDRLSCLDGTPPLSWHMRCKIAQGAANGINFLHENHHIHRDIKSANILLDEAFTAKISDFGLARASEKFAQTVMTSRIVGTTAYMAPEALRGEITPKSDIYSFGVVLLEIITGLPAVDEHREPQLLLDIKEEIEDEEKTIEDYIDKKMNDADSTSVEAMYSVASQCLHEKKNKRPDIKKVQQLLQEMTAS
Run Description: KINOMEscan competition binding
Setup Conditions: read-out: %Inh IRAK4
Number in %, nothing else.

Compound | Measured Value
CS(=O)(=O)Cc1ccc(Nc2nccc(-c3c(-c4cccc(NC(=O)C5CCCCC5)c4)nn4ncccc34)n2)cc1 [UNC10225159A] | 25

Asked: Could you share which inhibition at 1 µM value was measured for O=c1cc(N2CCOCC2)nc2n(Cc3cccc(Cl)c3Cl)c(C3CC3)nn12 [UNC10225469A] ?
Given back: 0

Asked: Now the same for COc1cccc(OC)c1C(=O)Nc1cccc(-c2nn3ccccc3c2-c2ccnc(Nc3cccc(F)c3)n2)c1 [UNC10225310A]
Given back: 0

Asked: Now the same for Cc1ccc(NC(=O)Nc2cccc(C(F)(F)F)c2)cc1 [UNC10225187A]
Given back: 0

Asked: Now the same for Cn1cc(-c2cnc(N)c3c(-c4ccc5c(c4)CCN5C(=O)Cc4ccccc4)csc23)cn1 [UNC10225012A]
Given back: 0
